EXPERIMENTAL TARGET: FimHtrJ96 (Escherichia coli, UniProt P08191)
Construct: coding for the lectin domain of FimH (residues 1-158) with a C-terminal 6-histidine tag; made in house; host or cells: E. coli HB101 (lacking the fim operon), periplasmic extract, plasmid pPKL241
Sequence (P08191 22-179): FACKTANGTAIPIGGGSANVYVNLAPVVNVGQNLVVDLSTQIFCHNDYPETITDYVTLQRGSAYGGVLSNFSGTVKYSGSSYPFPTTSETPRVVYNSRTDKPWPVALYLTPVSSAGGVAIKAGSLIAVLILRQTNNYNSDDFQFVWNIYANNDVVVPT
EXPERIMENT DESCRIPTION: biochemical
Type: binding, uropathogenic E. coli strain J96
ASSAY CONTEXT: Table 1, O1 alkyl and aryl mannosides; SPR and displacement binding experiments; read-out: KD
MEASURE NAME: Kd (nM)
Output spec: scalar in nM, unitless text.

Look at this compound and give its reported Kd. CCCCO[C@H]1O[C@H](CO)[C@@H](O)[C@H](O)[C@@H]1O [Butyl man, butyl mannoside]
151

* * *

EXPERIMENTAL TARGET: FimHtrJ96 (Escherichia coli)
Construct: coding for the lectin domain of FimH (residues 1-158) with a C-terminal 6-histidine tag; made in house; host or cells: E. coli HB101 (lacking the fim operon), periplasmic extract, plasmid pPKL241
EXPERIMENT DESCRIPTION: biochemical
Format: binding, uropathogenic E. coli strain J96
ASSAY CONTEXT: Table 1, calculated from KD
ΔG° strictly less than -10 kcal/mol = condition met. Otherwise condition not met.

COMPOUND	EXPERIMENTAL TARGET	DISCRETE LABEL
CCCO[C@H]1O[C@H](CO)[C@@H](O)[C@H](O)[C@@H]1O [Propyl man, propyl mannoside]	FimHtrJ96 (Escherichia coli)	condition not met
CCCCCO[C@H]1O[C@H](CO)[C@@H](O)[C@H](O)[C@@H]1O [Pentyl man, pentyl mannoside]	FimHtrJ96 (Escherichia coli)	condition met
CCCCO[C@H]1O[C@H](CO)[C@@H](O)[C@H](O)[C@@H]1O [Butyl man, butyl mannoside]	FimHtrJ96 (Escherichia coli)	condition not met
CCCCCCO[C@H]1O[C@H](CO)[C@@H](O)[C@H](O)[C@@H]1O [Hexyl man, hexyl mannoside]	FimHtrJ96 (Escherichia coli)	condition met
CCO[C@H]1O[C@H](CO)[C@@H](O)[C@H](O)[C@@H]1O [Ethyl man, ethyl mannoside]	FimHtrJ96 (Escherichia coli)	condition not met

Strictly below -10 kcal/mol: is that where ΔG° of CCCCCCCO[C@H]1O[C@H](CO)[C@@H](O)[C@H](O)[C@@H]1O [Heptyl man, heptyl α-D-mannopyranoside] sits?
condition met

Input CO[C@H]1O[C@H](CO)[C@@H](O)[C@H](O)[C@@H]1O [Methyl man, Methyl mannoside] ; condition: ΔG° strictly below -10 kcal/mol. Does it hold?
condition not met

* * *

EXPERIMENTAL TARGET: FimHtrJ96 (Escherichia coli)
Construct: coding for the lectin domain of FimH (residues 1-158) with a C-terminal 6-histidine tag; made in house; host or cells: E. coli HB101 (lacking the fim operon), periplasmic extract, plasmid pPKL241
EXPERIMENT DESCRIPTION: biochemical
Type: binding, uropathogenic E. coli strain J96
MEASURE NAME: pKd
Keep in mind that pKd stands for -log10 of concentration in molar terms.

Solved entries (count: 3):
COMPOUND	OBSERVED
OC[C@H]1O[C@@](CO)(O[C@H]2O[C@H](CO)[C@@H](O)[C@H](O)[C@H]2O)[C@@H](O)[C@@H]1O	1.89
CCCO[C@H]1O[C@H](CO)[C@@H](O)[C@H](O)[C@@H]1O [Propyl man, propyl mannoside]	6.52
CCCCCCO[C@H]1O[C@H](CO)[C@@H](O)[C@H](O)[C@@H]1O [Hexyl man, hexyl mannoside]	8.00

Name the reported pKd value associated with the compound CCO[C@H]1O[C@H](CO)[C@@H](O)[C@H](O)[C@@H]1O [Ethyl man, ethyl mannoside]
5.92

Record request: pKd value, item CCCCCCCCO[C@H]1O[C@H](CO)[C@@H](O)[C@H](O)[C@@H]1O [Octyl man, octyl mannoside]
7.66

Which pKd is reported for this compound? `O=C(CO)[C@@H](O)[C@H](O)[C@H](O)CO`
4.51

Can you look up the measured pKd of `OC[C@H]1O[C@H](O)C[C@@H](O)[C@@H]1O` for me?
3.52

Using the record for CCCCCO[C@H]1O[C@H](CO)[C@@H](O)[C@H](O)[C@@H]1O [Pentyl man, pentyl mannoside] , report its pKd.
7.60

Recorded pKd for `O=C[C@H](O)[C@@H](O)[C@@H](O)[C@H](O)CO` , please?
1.00

Recorded pKd for CCCCCCCO[C@H]1O[C@H](CO)[C@@H](O)[C@H](O)[C@@H]1O [Heptyl man, heptyl α-D-mannopyranoside] , please?
8.30

Sample `OC[C@H]1O[C@H](O)[C@@H](O)[C@@H](O)[C@@H]1O` — what was its pKd?
5.64

Which pKd is listed for CO[C@H]1O[C@H](CO)[C@@H](O)[C@H](O)[C@@H]1O [Methyl man, Methyl mannoside] ?
5.66

* * *

EXPERIMENTAL TARGET: FimHtrF18 (Escherichia coli, UniProt P08191, N91S/S99N/V48A)
Construct: coding for the lectin domain of FimH (residues 1-158) with a C-terminal 6-histidine tag; made in house; host or cells: E. coli HB101 (lacking the fim operon), periplasmic extract, plasmid pPKL316
Sequence (P08191 22-179 V48A/N91S/S99N): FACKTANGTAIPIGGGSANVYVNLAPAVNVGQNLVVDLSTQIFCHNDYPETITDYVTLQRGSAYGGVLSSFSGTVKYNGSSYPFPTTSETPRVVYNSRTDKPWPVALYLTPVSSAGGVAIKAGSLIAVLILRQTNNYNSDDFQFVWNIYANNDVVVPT
EXPERIMENT DESCRIPTION: biochemical
Assay type: binding, E. coli fecal (F18) strain
ASSAY CONTEXT: Table 3, [3H]-mannose displacement assay (mannose measured directly); read-out: KD F18
Protocol: To investigate if these variations reflect differences in sugar binding at the molecular level, the dissociation constants of a series of mannosides for the FimH lectin domain from a fecal (F18) and from a UPEC (Cl#4) strain were determined. […] Five different tri-mannosides corresponding to high-mannose substructures were synthesized, and their binding to FimHtrJ96, FimHtrF18 and FimHtrCl#4 measured using our [^3H]-mannose displacement assay (Table 3). […]
Reported pKd by item:
Scale explanation: pKd corresponds to minus log10 of a concentration expressed in moles per litre.

Consider the worked cases shown below.
COMPOUND	OBSERVED
OC[C@H]1O[C@H](O[C@@H]2[C@H](O)[C@@H](OC[C@H]3OC(O)[C@@H](O)[C@@H](O)[C@@H]3O)O[C@H](CO)[C@H]2O)[C@@H](O)[C@@H](O)[C@@H]1O (some centres unmarked)	6.14
OC[C@H]1O[C@H](O[C@@H]2[C@@H](OC[C@H]3OC(O)[C@@H](O)[C@@H](O)[C@@H]3O)O[C@H](CO)[C@@H](O)[C@@H]2O)[C@@H](O)[C@@H](O)[C@@H]1O (some centres unmarked)	5.74
OC[C@H]1O[C@H](O[C@@H]2[C@@H](O[C@H]3[C@H](O)[C@@H](CO)OC(O)[C@H]3O)O[C@H](CO)[C@@H](O)[C@@H]2O)[C@@H](O)[C@@H](O)[C@@H]1O (some centres unmarked)	5.52
OC[C@H]1O[C@H](OC[C@H]2O[C@H](OC[C@H]3OC(O)[C@@H](O)[C@@H](O)[C@@H]3O)[C@@H](O)[C@@H](O)[C@@H]2O)[C@@H](O)[C@@H](O)[C@@H]1O (some centres unmarked)	5.23

Then this compound:
Please tell me: pKd of OC[C@H]1O[C@H](O[C@@H]2[C@@H](O[C@@H]3C(O)O[C@H](CO)[C@@H](O)[C@@H]3O)O[C@H](CO)[C@@H](O)[C@@H]2O)[C@@H](O)[C@@H](O)[C@@H]1O (some centres unmarked) , system FimHtrF18 (Escherichia coli, UniProt P08191, N91S/S99N/V48A)?
5.49

* * *

ΔG° by entry:
EXPERIMENTAL TARGET: FimHtrJ96 (Escherichia coli, UniProt P08191)
Construct: coding for the lectin domain of FimH (residues 1-158) with a C-terminal 6-histidine tag; made in house; host or cells: E. coli HB101 (lacking the fim operon), periplasmic extract, plasmid pPKL241
EXPERIMENT DESCRIPTION: biochemical
Assay type: binding, uropathogenic E. coli strain J96
ASSAY CONTEXT: Table 1, calculated from KD
Just the number in kcal/mol, nothing appended.

Known results for compounds:
COMPOUND	SCALE UNIT	ΔG°
O=[N+]([O-])c1ccc(OC2O[C@H](CO)[C@@H](O)[C@H](O)[C@@H]2O)cc1 (stereo partly drawn) [p-Nitrophenyl man, p-Nitrophenyl α-mannoside]	kcal/mol	-10.3
OC[C@H]1O[C@H](O)[C@@H](O)[C@@H](O)[C@@H]1O	kcal/mol	-7.6
CCCCCCCCO[C@H]1O[C@H](CO)[C@@H](O)[C@H](O)[C@@H]1O [Octyl man, octyl mannoside]	kcal/mol	-10.4

Here's the next entry for you.
I have this compound here, Cc1cc(=O)oc2cc(O[C@H]3O[C@H](CO)[C@@H](O)[C@H](O)[C@@H]3O)ccc12 [Umbelliferyl man, 4-Methylumbelliferyl α-mannoside] , and I need its recorded ΔG°.
-10.8
